Where do the numbers come from? From PubChem BioAssay (EPA / NIEHS).

Read-out: Thyroid Hormone Responsive (THRSP), THRSP (gene 7069)
Assay: LTEA_HepaRG_THRSP: Life Technologies and Expression Analysis (LTEA) Assay for Thyroid Hormone Responsive (THRSP) using HepaRG (AID 2283536)
Conditions: mRNA level, 48 h; actives raise or lower the signal
Active and inactive are the calls of the source. How the source made its calls: active means hit-call score of the fitted dose curve at least 0.9, where 1 is the maximum; inactive means score below 0.9.
Outcome field: choose from 1 (active), 0 (inactive)

See these solved cases before continuing.
{"compound": "Cc1cc(C2CC2)nc(Nc2ccccc2)n1", "assigned_category": 1}
{"compound": "FC(F)C(F)(F)OCC(Cn1cncn1)c1ccc(Cl)cc1Cl (stereo unspecified)", "assigned_category": 1}
{"compound": "CCC(CC)Nc1c([N+](=O)[O-])cc(C)c(C)c1[N+](=O)[O-]", "assigned_category": 1}

## Input How did this test come out for O=[N+]([O-])c1cc(C(F)(F)F)c(Cl)c([N+](=O)[O-])c1Nc1ncc(C(F)(F)F)cc1Cl ?
## Output 1

## Input How did this test come out for COc1ccc(C(=CC(=O)N2CCOCC2)c2ccc(Cl)cc2)cc1OC ?
## Output 1

## Input How did this test come out for CC(C)N(C(=O)SCC(Cl)=C(Cl)Cl)C(C)C ?
## Output 0

###

Read-out: Bcl-2 (BID) gene, BID (gene 637)
Assay: LTEA_HepaRG_BID: Life Technologies and Expression Analysis (LTEA) Assay for Bcl-2 (BID) gene using HepaRG (AID 2283476)
Conditions: mRNA level, 48 h; actives raise or lower the signal
Activity calls are given as the source filed them. How the source made its calls: active means hit-call score of the fitted dose curve at least 0.9, where 1 is the maximum; inactive means score below 0.9.
Outcome field: choose from active, inactive

See these solved cases before continuing.
{"molecule": "CSC1=N[C@@](C)(c2ccccc2)C(=O)N1Nc1ccccc1", "assigned_category": "inactive"}
{"molecule": "CSc1nnc(C(C)(C)C)c(=O)n1N", "assigned_category": "inactive"}
{"molecule": "O=c1ccc(=O)[nH][nH]1", "assigned_category": "inactive"}
{"molecule": "CSc1nc(NC(C)C)nc(NC(C)C)n1", "assigned_category": "inactive"}
{"molecule": "CCCCOC(=O)c1ccccc1C(=O)O", "assigned_category": "inactive"}
{"molecule": "CNC(=O)ON=C(C)SC", "assigned_category": "inactive"}
{"molecule": "CN(C)NC(=O)CCC(=O)O", "assigned_category": "inactive"}
{"molecule": "CC(=NC#N)N(C)Cc1ccc(Cl)nc1", "assigned_category": "inactive"}

## Input How did this test come out for C[N+]1(C)CCCCC1 ?
## Output inactive

## Input How did this test come out for C#CC(C)(C)NC(=O)c1cc(Cl)cc(Cl)c1 ?
## Output inactive

## Input How did this test come out for FC(F)C(F)(F)OCC(Cn1cncn1)c1ccc(Cl)cc1Cl (configuration not stated) ?
## Output inactive

## Input How did this test come out for Cc1cc(C2CC2)nc(Nc2ccccc2)n1 ?
## Output inactive

## Input How did this test come out for C=C(C)[C@H]1Cc2c(ccc3c2O[C@@H]2COc4cc(OC)c(OC)cc4[C@@H]2C3=O)O1 ?
## Output inactive

## Input How did this test come out for CC(Oc1cccc(Cl)c1)C(=O)O (configuration not stated) ?
## Output inactive

## Input How did this test come out for N#CSCSC#N ?
## Output inactive

## Input How did this test come out for O=C(O)c1cc(Oc2ccc(C(F)(F)F)cc2Cl)ccc1[N+](=O)[O-] ?
## Output inactive

###

Read-out: TIMP metallopeptidase inhibitor 1 (TIMP1), TIMP1 (gene 7076)
Assay: BSK_hDFCGF_TIMP1: BioMAP Diversity Plus: hDFCGF Assay for TIMP metallopeptidase inhibitor 1 (TIMP1) Biomarker Activity (AID 2283062)
Conditions: primary human foreskin fibroblasts; actives raise or lower the signal
Calls of active or inactive are those of the source. The calls were made as follows: active = hit-call score of the fitted dose curve at least 0.9, where 1 is the maximum; inactive = score below 0.9.
Outcome field: choose from active, inactive

See these solved cases before continuing.
{"molecule": "CC(C)=CC1C(C(=O)OCN2C(=O)C3=C(CCCC3)C2=O)C1(C)C (stereo unspecified)", "assigned_category": "inactive"}
{"molecule": "CC(C)[C@H](C(=O)O[C@H](C#N)c1cccc(Oc2ccccc2)c1)c1ccc(Cl)cc1", "assigned_category": "inactive"}
{"molecule": "C#CCC1=C(C)C(OC(=O)C2C(C=C(C)C)C2(C)C)CC1=O (stereo unspecified)", "assigned_category": "inactive"}
{"molecule": "Nc1c(Cl)cc([N+](=O)[O-])cc1Cl", "assigned_category": "inactive"}

## Input How did this test come out for CCOP(=S)(OCC)SCCSCC ?
## Output inactive

## Input How did this test come out for CCCOCC(=Nc1ccc(Cl)cc1C(F)(F)F)n1ccnc1 ?
## Output active

###

Experiment: BSK_hDFCGF_SRB: Viability Assessment in the BioMAP Diversity Plus: hDFCGF Assay (AID 2283061);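 further: cells exposed to compound for 24 h before the read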
Conditions: primary human foreskin fibroblasts
Active and inactive are the calls of the source. The calls were made as follows: active = hit-call score of the fitted dose curve at least 0.9, where 1 is the maximum; inactive = score below 0.9.
Outcome field: choose from Yes = active, No = inactive

{"molecule": "C#CCC1=C(C)C(OC(=O)C2C(C=C(C)C)C2(C)C)CC1=O (centres undefined)", "assigned_category": "Yes"}
{"molecule": "CCNc1nc(Cl)nc(NC(C)(C)C#N)n1", "assigned_category": "No"}
{"molecule": "CN1COCN(Cc2cnc(Cl)s2)C1=N[N+](=O)[O-]", "assigned_category": "No"}
{"molecule": "COc1ccc(C(=CC(=O)N2CCOCC2)c2ccc(Cl)cc2)cc1OC", "assigned_category": "No"}
{"molecule": "CCc1cccc(CC)c1N(COC)C(=O)CCl", "assigned_category": "Yes"}

## Input How did this test come out for CNc1cnn(-c2cccc(C(F)(F)F)c2)c(=O)c1Cl ?
## Output No

## Input How did this test come out for CCOP(=O)(OCC)Oc1cc(C)nc(C(C)C)n1 ?
## Output No

## Input How did this test come out for N#CSCSC#N ?
## Output Yes

## Input How did this test come out for CCC(CC)Nc1c([N+](=O)[O-])cc(C)c(C)c1[N+](=O)[O-] ?
## Output No

###

Read-out: Plasminogen activator inhibitor-1 (PAI1), SERPINE1 (gene 5054)
Experiment: BSK_hDFCGF_PAI1: BioMAP Diversity Plus: hDFCGF Assay for Plasminogen activator inhibitor-1 (PAI1) Biomarker Activity (AID 2283066)
Conditions: primary human foreskin fibroblasts; actives raise or lower the signal
Activity calls are given as the source filed them. The calls were made as follows: active = hit-call score of the fitted dose curve at least 0.9, where 1 is the maximum; inactive = score below 0.9.
Outcome field: choose from active, inactive

See these solved cases before continuing.
{"compound": "CCOP(=S)(Oc1cnc(C(C)(C)C)nc1)OC(C)C (centres undefined)", "assigned_category": "inactive"}
{"compound": "CCOP(=S)(OCC)Oc1ccc([N+](=O)[O-])cc1", "assigned_category": "active"}
{"compound": "N#CSCSC#N", "assigned_category": "active"}
{"compound": "CNC(=O)ON=C(SC)C(=O)N(C)C", "assigned_category": "inactive"}
{"compound": "CN(C)[C@@H]1C(=O)C(C(N)=O)=C(O)[C@@]2(O)C(=O)C3=C(O)c4c(O)cccc4[C@@](C)(O)[C@H]3[C@H](O)[C@@H]12", "assigned_category": "inactive"}

## Input How did this test come out for COc1ccc(C(=CC(=O)N2CCOCC2)c2ccc(Cl)cc2)cc1OC ?
## Output active

## Input How did this test come out for CC(C1CC1)C(O)(Cn1cncn1)c1ccc(Cl)cc1 (centres undefined) ?
## Output inactive

## Input How did this test come out for S=C1NCCN1 ?
## Output inactive

## Input How did this test come out for CCOP(=O)(NC(C)C)Oc1ccc(SC)c(C)c1 (centres undefined) ?
## Output inactive

## Input How did this test come out for COP(=O)(OC)OC(Br)C(Cl)(Cl)Br (centres undefined) ?
## Output active

## Input How did this test come out for CCCOCC(=Nc1ccc(Cl)cc1C(F)(F)F)n1ccnc1 ?
## Output active

## Input How did this test come out for CNC(=O)Oc1cccc2c1OC(C)(C)O2 ?
## Output inactive

## Input How did this test come out for CCCCN(CC)c1c([N+](=O)[O-])cc(C(F)(F)F)cc1[N+](=O)[O-] ?
## Output active

## Input How did this test come out for CNC(=O)ON=C(C)SC ?
## Output inactive

## Input How did this test come out for Cc1nn(-c2cc(NS(C)(=O)=O)c(Cl)cc2Cl)c(=O)n1C(F)F ?
## Output inactive

## Input How did this test come out for COc1cc(OC)nc(Sc2cccc(Cl)c2C(=O)O)n1 ?
## Output inactive

## Input How did this test come out for C[N+]1(C)CCCCC1 ?
## Output inactive

## Input How did this test come out for O=c1ccc(=O)[nH][nH]1 ?
## Output inactive

## Input How did this test come out for CC(COc1ccc(Oc2ccccc2)cc1)Oc1ccccn1 (centres undefined) ?
## Output inactive

###

Read-out: Tumor necrosis factor receptor superfamily member 6 (Homo sapiens) (UniProt P25445)
Assay: LTEA_HepaRG_FAS: Life Technologies and Expression Analysis (LTEA) Assay for Fas cell surface death receptor (FAS) using HepaRG (AID 2283447)
Settings: mRNA level, 48 h; actives raise or lower the signal
The source made the active and inactive calls. Rule for the calls: active = hit-call score of the fitted dose curve at least 0.9, where 1 is the maximum; inactive = score below 0.9.
Outcome field: choose from 1 (active), 0 (inactive)

See these solved cases before continuing.
{"compound": "CNc1cnn(-c2cccc(C(F)(F)F)c2)c(=O)c1Cl", "assigned_category": 0}
{"compound": "Cc1ccn2nc(S(=O)(=O)Nc3c(F)cccc3F)nc2n1", "assigned_category": 0}
{"compound": "CCc1cccc(C)c1N(C(=O)CCl)C(C)COC (centres undefined)", "assigned_category": 0}
{"compound": "COc1cccc(C(=O)NN(C(=O)c2cc(C)cc(C)c2)C(C)(C)C)c1C", "assigned_category": 0}
{"compound": "C[Si](Cn1cncn1)(c1ccc(F)cc1)c1ccc(F)cc1", "assigned_category": 0}

Next:
## Input How did this test come out for CCC(=NOC/C=C/Cl)C1=C(O)CC(C2CCOCC2)CC1=O (centres undefined) ?
## Output 0
